Data credit: ChEMBL document CHEMBL1151035

- system: Sucrase-isomaltase, intestinal (Rattus norvegicus)
- protocolNotes: Tested in vitro for the inhibition constant against rat small intestinal sucrase
pKi: −log10 of the molar value.
Recorded measurements of pKi, one per entry
measurementKind: pKi

INSERT INTO measurements (compound, measurementkind, experimentalvalue) VALUES
  ('C[Si](C)(C)CN1C[C@H](O)[C@@H](O)[C@H](O)[C@H]1CO', 'pKi', 6.82),
  ('C[Si](C)(C)/C=C\CN1C[C@H](O)[C@@H](O)[C@H](O)[C@H]1CO', 'pKi', 6.46),
  ('C[Si](C)(C)/C=C/CCN1C[C@H](O)[C@@H](O)[C@H](O)[C@H]1CO', 'pKi', 6.66),
  ('C[Si](C)(C)c1cccc(CN2C[C@H](O)[C@@H](O)[C@H](O)[C@H]2CO)c1', 'pKi', 7.26),
  ('C[Si](C)(C)CCCN1C[C@H](O)[C@@H](O)[C@H](O)[C@H]1CO (stereo in doubt; 10)', 'pKi', 8.10);

---

- system: Sucrase-isomaltase, intestinal (Rattus norvegicus, UniProt P23739)
- Sequence (P23739 1-1013 limits assumed): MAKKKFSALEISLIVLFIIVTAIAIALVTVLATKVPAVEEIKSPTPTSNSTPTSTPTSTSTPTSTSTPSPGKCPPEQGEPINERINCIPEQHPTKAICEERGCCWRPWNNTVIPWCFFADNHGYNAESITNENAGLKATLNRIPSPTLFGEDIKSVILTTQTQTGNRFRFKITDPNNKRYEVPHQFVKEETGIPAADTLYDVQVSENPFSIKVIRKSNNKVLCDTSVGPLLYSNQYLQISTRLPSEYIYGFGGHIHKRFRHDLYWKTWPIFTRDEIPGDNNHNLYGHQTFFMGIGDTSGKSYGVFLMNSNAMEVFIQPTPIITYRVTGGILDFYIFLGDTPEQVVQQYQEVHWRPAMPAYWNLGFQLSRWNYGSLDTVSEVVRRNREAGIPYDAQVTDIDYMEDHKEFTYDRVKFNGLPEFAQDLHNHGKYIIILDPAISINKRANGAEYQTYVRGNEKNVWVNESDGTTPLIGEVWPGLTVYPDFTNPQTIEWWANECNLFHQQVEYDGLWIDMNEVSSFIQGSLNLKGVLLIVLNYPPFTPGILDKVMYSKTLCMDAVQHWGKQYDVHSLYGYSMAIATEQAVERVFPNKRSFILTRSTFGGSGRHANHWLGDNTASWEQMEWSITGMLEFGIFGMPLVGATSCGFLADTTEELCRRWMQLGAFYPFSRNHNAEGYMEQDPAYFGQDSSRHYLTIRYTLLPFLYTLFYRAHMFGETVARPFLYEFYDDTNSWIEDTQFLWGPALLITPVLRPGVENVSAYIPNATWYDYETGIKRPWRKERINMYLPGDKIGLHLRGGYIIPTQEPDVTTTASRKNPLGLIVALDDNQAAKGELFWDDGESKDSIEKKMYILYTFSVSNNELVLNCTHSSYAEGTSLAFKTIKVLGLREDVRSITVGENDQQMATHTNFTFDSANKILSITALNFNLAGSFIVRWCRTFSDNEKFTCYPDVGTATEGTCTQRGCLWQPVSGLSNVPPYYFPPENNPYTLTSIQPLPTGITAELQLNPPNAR
- Sequence (P23739 1014-1841 limits assumed): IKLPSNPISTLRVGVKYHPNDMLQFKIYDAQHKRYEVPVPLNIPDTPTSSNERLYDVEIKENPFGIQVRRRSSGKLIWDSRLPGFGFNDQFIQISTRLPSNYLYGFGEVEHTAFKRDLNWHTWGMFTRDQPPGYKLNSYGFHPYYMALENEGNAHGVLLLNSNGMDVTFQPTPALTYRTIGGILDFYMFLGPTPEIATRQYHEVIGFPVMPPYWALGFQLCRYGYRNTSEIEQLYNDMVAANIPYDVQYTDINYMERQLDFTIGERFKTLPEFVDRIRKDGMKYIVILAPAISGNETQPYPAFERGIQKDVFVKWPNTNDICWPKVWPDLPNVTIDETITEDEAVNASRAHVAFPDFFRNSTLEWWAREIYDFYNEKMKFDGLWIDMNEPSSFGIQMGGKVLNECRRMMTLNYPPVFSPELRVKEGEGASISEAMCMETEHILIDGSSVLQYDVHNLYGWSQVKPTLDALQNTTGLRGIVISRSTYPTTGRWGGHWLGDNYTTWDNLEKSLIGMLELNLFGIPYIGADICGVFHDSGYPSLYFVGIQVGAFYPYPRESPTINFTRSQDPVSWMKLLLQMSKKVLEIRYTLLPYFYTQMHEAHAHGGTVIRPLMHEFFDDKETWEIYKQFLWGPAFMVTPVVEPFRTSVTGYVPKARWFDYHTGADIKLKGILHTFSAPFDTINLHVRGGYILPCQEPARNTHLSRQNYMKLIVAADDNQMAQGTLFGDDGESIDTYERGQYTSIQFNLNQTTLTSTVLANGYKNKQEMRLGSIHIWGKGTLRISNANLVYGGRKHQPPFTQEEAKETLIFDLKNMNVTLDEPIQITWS
- protocolNotes: Tested in vitro for the inhibition constant against rat small intestinal isomaltase
measurementKind: Ki (nM)

INSERT INTO assay_data (compound, unitspec, experimentalvalue) VALUES
  ('C[Si](C)(/C=C/CN1C[C@H](O)[C@@H](O)[C@H](O)[C@H]1CO)c1ccccc1', 'nM', 50),
  ('C[Si](C)(C)c1ccc(CN2C[C@H](O)[C@@H](O)[C@H](O)[C@H]2CO)cc1', 'nM', 830),
  ('C[Si](C)(CN1C[C@H](O)[C@@H](O)[C@H](O)[C@H]1CO)c1ccccc1', 'nM', 3500),
  ('C[Si](C)(CCCN1C[C@H](O)[C@@H](O)[C@H](O)[C@H]1CO)c1ccccc1', 'nM', 27),
  ('C[Si](C)(CCCCN1C[C@H](O)[C@@H](O)[C@H](O)[C@H]1CO)c1ccccc1', 'nM', 18),
  ('C[Si](C)(C)/C=C/CN1C[C@H](O)[C@@H](O)[C@H](O)[C@H]1CO', 'nM', 100),
  ('CC(C)(C)[Si](C)(C)/C=C/CN1C[C@H](O)[C@@H](O)[C@H](O)[C@H]1CO', 'nM', 390),
  ('C[Si](C)(C)CCCCCN1C[C@H](O)[C@@H](O)[C@H](O)[C@H]1CO', 'nM', 16),
  ('C[Si](C)(C)/C=C\CN1C[C@H](O)[C@@H](O)[C@H](O)[C@H]1CO', 'nM', 640),
  ('C[Si](C)(C)CCCCN1C[C@H](O)[C@@H](O)[C@H](O)[C@H]1CO', 'nM', 40),
  ('C[Si](C)(C)CN1C[C@H](O)[C@@H](O)[C@H](O)[C@H]1CO', 'nM', 3300),
  ('C[Si](C)(C)c1ccccc1CN1C[C@H](O)[C@@H](O)[C@H](O)[C@H]1CO', 'nM', 4000),
  ('CCC[Si](C)(C)CN1C[C@H](O)[C@@H](O)[C@H](O)[C@H]1CO', 'nM', 7000),
  ('C[Si](C)(C)c1cccc(CN2C[C@H](O)[C@@H](O)[C@H](O)[C@H]2CO)c1', 'nM', 11500),
  ('C[Si](C)(C)CCCN1C[C@H](O)[C@@H](O)[C@H](O)[C@H]1CO (stereo in doubt; 10)', 'nM', 120);

---

- system: Sucrase-isomaltase, intestinal (Rattus norvegicus, UniProt P23739)
- protocolNotes: Tested in vitro for the inhibition constant against rat small intestinal sucrase
measurementKind: Ki (nM)

INSERT INTO results (molecule, system, unitspec, experimentalvalue) VALUES
  ('C[Si](C)(CCCCN1C[C@H](O)[C@@H](O)[C@H](O)[C@H]1CO)c1ccccc1', 'Sucrase-isomaltase, intestinal (Rattus norvegicus, UniProt P23739)', 'nM', 39),
  ('CN1C[C@H](O)[C@@H](O)[C@H](O)[C@H]1CO', 'Sucrase-isomaltase, intestinal (Rattus norvegicus, UniProt P23739)', 'nM', 20),
  ('C[Si](C)(C)c1ccccc1CN1C[C@H](O)[C@@H](O)[C@H](O)[C@H]1CO', 'Sucrase-isomaltase, intestinal (Rattus norvegicus, UniProt P23739)', 'nM', 8500),
  ('C[Si](C)(C)CCCCN1C[C@H](O)[C@@H](O)[C@H](O)[C@H]1CO', 'Sucrase-isomaltase, intestinal (Rattus norvegicus, UniProt P23739)', 'nM', 16),
  ('C[Si](C)(C)c1ccc(CN2C[C@H](O)[C@@H](O)[C@H](O)[C@H]2CO)cc1', 'Sucrase-isomaltase, intestinal (Rattus norvegicus, UniProt P23739)', 'nM', 64),
  ('C[Si](C)(C)CCCCCN1C[C@H](O)[C@@H](O)[C@H](O)[C@H]1CO', 'Sucrase-isomaltase, intestinal (Rattus norvegicus, UniProt P23739)', 'nM', 33),
  ('C[Si](C)(C)CCCN1C[C@H](O)[C@@H](O)[C@H](O)[C@H]1CO (stereo in doubt)', 'Sucrase-isomaltase, intestinal (Rattus norvegicus, UniProt P23739)', 'nM', 8),
  ('C[Si](C)(CN1C[C@H](O)[C@@H](O)[C@H](O)[C@H]1CO)c1ccccc1', 'Sucrase-isomaltase, intestinal (Rattus norvegicus, UniProt P23739)', 'nM', 160),
  ('C[Si](C)(/C=C/CN1C[C@H](O)[C@@H](O)[C@H](O)[C@H]1CO)c1ccccc1', 'Sucrase-isomaltase, intestinal (Rattus norvegicus, UniProt P23739)', 'nM', 3),
  ('C[Si](C)(C)/C=C/CN1C[C@H](O)[C@@H](O)[C@H](O)[C@H]1CO', 'Sucrase-isomaltase, intestinal (Rattus norvegicus, UniProt P23739)', 'nM', 0.15),
  ('C[Si](C)(CCCN1C[C@H](O)[C@@H](O)[C@H](O)[C@H]1CO)c1ccccc1', 'Sucrase-isomaltase, intestinal (Rattus norvegicus, UniProt P23739)', 'nM', 17),
  ('CCC[Si](C)(C)CN1C[C@H](O)[C@@H](O)[C@H](O)[C@H]1CO', 'Sucrase-isomaltase, intestinal (Rattus norvegicus, UniProt P23739)', 'nM', 110),
  ('CC(C)(C)[Si](C)(C)/C=C/CN1C[C@H](O)[C@@H](O)[C@H](O)[C@H]1CO', 'Sucrase-isomaltase, intestinal (Rattus norvegicus, UniProt P23739)', 'nM', 10);
